For each entry below, report its GI50 value.
# Test system: T47D
# assayExplanation: NCI tumour cell line growth inhibition, 48 h
Activity calls are given as the source filed them. Cut-off read from the data, not from the text of the source: active = GI50 up to about 1.1 µM and inactive = higher.

Task: Form field: reported GI50 of "COc1cc(/C=C2\C[C@H]3[C@@H]4CC=C5C=C(N6CCCC6)CC[C@]5(C)[C@H]4CC[C@]3(C)C2=O)cc(OC)c1OC"
Output: 1.94 µM (inactive)

Task: Form field: reported GI50 of "COc1cccc(Nc2nc(N)nc(N)c2N)c1"
Output: 35.6 µM (inactive)

Task: Form field: reported GI50 of "O=C(Cc1ccccc1)N/N=C/c1ccccc1O"
Output: 4.29 µM (inactive)

Task: Form field: reported GI50 of "CCCCCCCCCCCCc1ccsc1-c1ccc(-c2ccc(-c3sccc3CCCCCCCCCCCC)s2)s1"
Output: > 100 µM (inactive)

Task: Form field: reported GI50 of O=C1/C(=C\c2ccccc2)C(NC2CCCCC2)c2ccccc21 (stereo unspecified)
Output: 1.73 µM (inactive)

Task: Form field: reported GI50 of "COc1ccc(N(C(=O)Nc2ccc(Cl)c(Cl)c2)c2ccccc2)cc1"
Output: > 10 µM (inactive)

Task: Form field: reported GI50 of "Cc1cccc2c(NCCN(C)C)c3cccc(C(=O)NCCN(C)C)c3nc12"
Output: 1.81 µM (inactive)

Task: Form field: reported GI50 of "O=c1c(=O)c2cscc2c1=O"
Output: 3.66 µM (inactive)

Task: Form field: reported GI50 of "Nc1ccc(-c2nc3ccccc3s2)cc1C#Cc1ccccc1"
Output: 27 µM (inactive)

Task: Form field: reported GI50 of "O=C(Cc1ccccc1)NN1C(=O)/C(=C\c2ccc([N+](=O)[O-])cc2)S/C1=N\c1ccccc1"
Output: 62.1 µM (inactive)

Task: Form field: reported GI50 of "CCOC(=O)/C=C/C(Br)=C(Br)/C=C/C(=O)OCC"
Output: 14.8 µM (inactive)

---

# System: OVCAR-5
# assayExplanation: NCI tumour cell line growth inhibition, 48 h
Calls of active or inactive are those of the source. Rule as the data show it: active = GI50 up to about 1.1 µM and inactive = higher.
API: response.call in active, inactive

Task: Please indicate how the test categorized COC(=O)C1Cc2c(OC)ccc(OC)c2CC(C(=O)OC)C1=O (stereo unspecified) .
Output: inactive

Task: Please indicate how the test categorized Cc1cccc2c1[C@]13OC(C)[C@]4(C)CC5OC(=O)[C@@]1(C)[C@@H]5[C@]34C(=O)O2 (stereo partly specified) .
Output: inactive

Task: Please indicate how the test categorized "Cc1cc2[nH]c3c(C#N)c(-c4ccccc4)c(CN4CCOCC4)c(=O)n3c2cc1C" .
Output: inactive

Task: Please indicate how the test categorized "CC(=O)ON(OC(C)=O)c1ccc(C)cc1" .
Output: inactive

Task: Please indicate how the test categorized "NC(=O)c1nnsc1NN=O" .
Output: inactive

Task: Please indicate how the test categorized "O=c1c2ccccc2c(=O)n2n1-c1cccc(c1)CSSCc1cccc-2c1" .
Output: inactive

Task: Please indicate how the test categorized "COC(=O)c1cccc(OC)c1C#Cc1c(OC)cccc1OC" .
Output: inactive

Task: Please indicate how the test categorized "Brc1ccccc1-c1ncc(-c2ccccc2)o1" .
Output: inactive

Task: Please indicate how the test categorized COCOc1c(C(OCOC)c2cnc(Sc3ccccc3)n2C)ccc(OC)c1OC (stereo unspecified) .
Output: inactive

Task: Please indicate how the test categorized Cc1ccc(NC(=O)S(N)(c2ccc(C)cc2)[N+](=O)[O-])cc1 (stereo unspecified) .
Output: inactive

Task: Please indicate how the test categorized C=C(Br)C(Cl)(CBr)CCC(Br)C(C)(C)Cl (stereo unspecified) .
Output: inactive

Task: Please indicate how the test categorized "Cc1nc2nc3c(ncn3COCCO)c(O)n2c1C(c1ccccc1)(c1ccccc1)c1ccccc1" .
Output: inactive

Task: Please indicate how the test categorized CCOC(=O)C(OP(=O)(OCC)OCC)C(F)(F)F (stereo unspecified) .
Output: inactive

Task: Please indicate how the test categorized "COc1ccc(OC)c(NC(=O)C(=O)NNC(=O)c2sc(NNC(C)=O)nc2C)c1" .
Output: inactive

Task: Please indicate how the test categorized "COCCN1C2=CCCCC2=Nc2c(N)nc(N)nc21" .
Output: inactive

Task: Please indicate how the test categorized "FC(F)(F)c1cccnc1Sc1nc2ccccc2s1" .
Output: inactive

Task: Please indicate how the test categorized "Clc1nc2c(N3CCCC3)nc(N3CCNCC3)nc2[nH]1" .
Output: inactive

Task: Please indicate how the test categorized "Cc1cnc2c(c1C)C(=O)c1ccccc1C2=O" .
Output: inactive

Task: Please indicate how the test categorized "COc1cc(/C=C2\C[C@H]3[C@@H]4CC=C5C=C(N6CCCC6)CC[C@]5(C)[C@H]4CC[C@]3(C)C2=O)cc(OC)c1OC" .
Output: inactive

Task: Please indicate how the test categorized "Nc1nnc2ccc(Cl)cc2[n+]1[O-]" .
Output: inactive

Task: Please indicate how the test categorized "O=c1[nH]/c(=C/c2ccc(OCc3ccccc3)cn2)c(=O)[nH]/c1=C/c1ccc(F)cc1" .
Output: inactive

Task: Please indicate how the test categorized "CCOC(=S)SCC(=O)O" .
Output: inactive

Task: Please indicate how the test categorized "O=C(Cc1ccccc1)N/N=C/c1ccccc1O" .
Output: inactive

Task: Please indicate how the test categorized C=C1C(=O)OC2/C=C(\C)C3OC3/C=C(/C(=O)OC)C(O)C(OC(=O)C3(C)OC3C)C12 (stereo unspecified) .
Output: inactive

Task: Please indicate how the test categorized "CNC(=O)c1nn[nH]c1O" .
Output: inactive

Task: Please indicate how the test categorized Cc1cc(O)c2c(c1)C[C@@H](O)C1=C2C(=O)c2c(O)ccc(OC3CC(O)C(OC4CC(OC5CCC(OC6CC(O)C(OC7CC(OC8CCC(O)C(C)O8)C(O)C(C)O7)C(C)O6)C(C)O5)C(O)C(C)O4)C(C)O3)c2C1=O (stereo partly specified) .
Output: active

Task: Please indicate how the test categorized "COc1ccc(S(=O)(=O)Nc2ccc(-c3csc(N4C(=O)/C(=C/c5ccccc5)N=C4c4ccccc4)n3)cc2)cc1Cl" .
Output: inactive

Task: Please indicate how the test categorized "CCCC(=O)OC(OC(=O)CCC)c1ccc([N+](=O)[O-])o1" .
Output: inactive

Task: Please indicate how the test categorized "Nc1ccc(-c2nc3ccccc3s2)cc1C#Cc1ccccc1" .
Output: inactive

Task: Please indicate how the test categorized CC(=O)O[C@@H]1[C@@H](C)[C@]2(CC(c3ccoc3)OC2O)C2CCC3O[C@]3(C)[C@]2(C)[C@@H]1OC(C)=O (stereo partly specified) .
Output: inactive

Task: Please indicate how the test categorized "CC(C)Oc1cccc(N2C(CCc3c[nH]c4ccc(Br)cc34)=NS(=O)(=O)c3cnccc32)c1" .
Output: inactive

Task: Please indicate how the test categorized O=C(O)C1CCC(=O)N1C(=O)COc1cc(Cl)c(Cl)cc1Cl (stereo unspecified) .
Output: inactive

Task: Please indicate how the test categorized Cc1cccc(C(O)c2cccnc2)c1O (stereo unspecified) .
Output: inactive

Task: Please indicate how the test categorized "O=C(O)c1cc(/C=C/c2cc(O)ccc2O)ccc1O" .
Output: inactive

Task: Please indicate how the test categorized CC(=O)C1=C(c2ccccc2)N(C2OC(CO)C(O)C(O)C2O)C(S)=C(C#N)C1c1ccc(Cl)cc1 (stereo unspecified) .
Output: inactive

Task: Please indicate how the test categorized "CCOC(=O)Cc1ccc(Nc2nc3cc(F)c(F)cc3nc2C(=O)OCC)cc1" .
Output: inactive

Task: Please indicate how the test categorized CCOC(=O)C(NC(=O)CC(C)C)(N1CCN(c2cc3c(cc2F)c(=O)c(C(=O)O)cn3C2CC2)CC1)C(F)(F)F (stereo unspecified) .
Output: inactive

Task: Please indicate how the test categorized CC(=O)OCC1OC(n2c(C)cc(C)c(C#N)c2=S)C(OC(C)=O)C(OC(C)=O)C1OC(C)=O (stereo unspecified) .
Output: inactive

Task: Please indicate how the test categorized "Cc1ccc(C(=O)Nc2ccc(S(=O)(=O)O)c3cc(S(=O)(=O)O)cc(S(=O)(=O)O)c23)cc1N" .
Output: inactive

Task: Please indicate how the test categorized COc1cccc2c1C(=O)c1c(O)c3c(c(O)c1C2=O)C[C@@](O)(C(C)=O)C[C@@H]3OC1CC(O)C(O)C(C)O1 (stereo partly specified) .
Output: active

Task: Please indicate how the test categorized CC#CC(O)(C(=O)OC1CCCN(C)C1)C1=CC=CCC1 (stereo unspecified) .
Output: inactive
